# Tested on: 885724-159-R-J1-PDC complex spheroid viability
# assay comment: Anticancer human tumor 885724-159-R-J1-PDC patient-derived pancreatic adenocarcinoma cell line growth inhibition [GQUAD]
# experimental conditions: second compound 3.16 µM; first compound 0.000999 µM; stronger effect = lower value
# Excerpt: DNA G-quadruplex Stabilizer Agents in Combinations in Complex Spheroids A high-throughput screen of multi-cell type tumor spheroids was designed to identify active combinations of DNA G-quadruplex stabilizer agents and targeted small molecules. […] Compounds. […] If the clinical Cmax for an agent had not been determined, the highest concentration tested was 10 microM. […]
For each entry below, report its viability, T/C value.
I only need the number, in %, no unit after it.

query: Need viability, T/C of Cc1[nH]c2ccccc2c1CCNCc1ccc(/C=C/C(=O)NO)cc1 + Cc1cnc(CNC(=O)c2c(=O)c3ccc(N4CCCN(C)CC4)nc3n3c2sc2ccccc23)cn1 , thanks.
result: 79.3

query: Need viability, T/C of CCc1c2c(nc3ccc(O)cc13)-c1cc3c(c(=O)n1C2)COC(=O)[C@]3(O)CC + CN(C)c1ccc(Nc2c3ccc(NC(=O)CCN4CCCC4)cc3nc3cc(NC(=O)CCN4CCCC4)ccc23)cc1 , thanks.
result: 67.1

query: Need viability, T/C of Cc1[nH]c2ccccc2c1CCNCc1ccc(/C=C/C(=O)NO)cc1 + Cc1[nH]c2ccc(F)cc2c1-c1nc2c3cccnc3c3ncccc3c2[nH]1 , thanks.
result: 18.1

query: Need viability, T/C of CC[C@@]1(O)C(=O)OCc2c1cc1n(c2=O)Cc2cc3c(CN(C)C)c(O)ccc3nc2-1 + CN(C)c1ccc(Nc2c3ccc(NC(=O)CCN4CCCC4)cc3nc3cc(NC(=O)CCN4CCCC4)ccc23)cc1 , thanks.
result: 81.3

query: Need viability, T/C of CCc1c2c(nc3ccc(O)cc13)-c1cc3c(c(=O)n1C2)COC(=O)[C@]3(O)CC + Cc1[nH]c2ccc(F)cc2c1-c1nc2c3cccnc3c3ncccc3c2[nH]1 , thanks.
result: 43

query: Need viability, T/C of Cn1ncnc1[C@H]1c2n[nH]c(=O)c3cc(F)cc(c23)N[C@@H]1c1ccc(F)cc1 + Cc1cnc(CNC(=O)c2c(=O)c3ccc(N4CCCN(C)CC4)nc3n3c2sc2ccccc23)cn1 , thanks.
result: 79.8

query: Need viability, T/C of Cc1[nH]c2ccccc2c1CCNCc1ccc(/C=C/C(=O)NO)cc1 + CN(C)c1ccc(Nc2c3ccc(NC(=O)CCN4CCCC4)cc3nc3cc(NC(=O)CCN4CCCC4)ccc23)cc1 , thanks.
result: 65.2

query: Need viability, T/C of CC[C@@]1(O)C(=O)OCc2c1cc1n(c2=O)Cc2cc3c(CN(C)C)c(O)ccc3nc2-1 + Cc1[nH]c2ccc(F)cc2c1-c1nc2c3cccnc3c3ncccc3c2[nH]1 , thanks.
result: 42.8

query: Need viability, T/C of Cn1ncnc1[C@H]1c2n[nH]c(=O)c3cc(F)cc(c23)N[C@@H]1c1ccc(F)cc1 + Cc1[nH]c2ccc(F)cc2c1-c1nc2c3cccnc3c3ncccc3c2[nH]1 , thanks.
result: 40.1

* * *

# Test system: 885724-159-R-J1-PDC complex spheroid viability
# assay comment: Anticancer human tumor 885724-159-R-J1-PDC cell line growth inhibition [GQUAD];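 note: spheroids exposed to agents for seven days before readout; percent of vehicle control viability where 100% = DMSO wells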
# experimental conditions: second compound 10 µM; first compound 3.16 µM; stronger effect = lower value
For each entry below, report its viability, T/C value.
I only need the number, in %, no unit after it.

query: Could you share what viability, T/C was measured for Nc1ccn(C2OC(CO)C(O)C2(F)F)c(=O)n1 (stereo not drawn) + Cc1[nH]c2ccc(F)cc2c1-c1nc2c3cccnc3c3ncccc3c2[nH]1 , tested on 885724-159-R-J1-PDC complex spheroid viability?
result: 61.2

query: Could you share what viability, T/C was measured for COc1cccc2c1C(=O)c1c(O)c3c(c(O)c1C2=O)CC(O)(C(=O)CO)CC3OC1CC(N)C(O)C(C)O1 (stereo not drawn) + Cc1cnc(CNC(=O)c2c(=O)c3ccc(N4CCCN(C)CC4)nc3n3c2sc2ccccc23)cn1 , tested on 885724-159-R-J1-PDC complex spheroid viability?
result: 12.4

query: Could you share what viability, T/C was measured for CC1COCCN1c1cc(C2(O)CC3CCC(C2)O3)c2cnn(-c3ccn[nH]3)c2n1 (stereo not drawn) + Cc1[nH]c2ccc(F)cc2c1-c1nc2c3cccnc3c3ncccc3c2[nH]1 , tested on 885724-159-R-J1-PDC complex spheroid viability?
result: 33.1
